Parameter: IC50. Scope: all listed entries.
Target under test: PAR2 (Homo sapiens (Human), UniProt P55085)
Sequence (P55085 26-397): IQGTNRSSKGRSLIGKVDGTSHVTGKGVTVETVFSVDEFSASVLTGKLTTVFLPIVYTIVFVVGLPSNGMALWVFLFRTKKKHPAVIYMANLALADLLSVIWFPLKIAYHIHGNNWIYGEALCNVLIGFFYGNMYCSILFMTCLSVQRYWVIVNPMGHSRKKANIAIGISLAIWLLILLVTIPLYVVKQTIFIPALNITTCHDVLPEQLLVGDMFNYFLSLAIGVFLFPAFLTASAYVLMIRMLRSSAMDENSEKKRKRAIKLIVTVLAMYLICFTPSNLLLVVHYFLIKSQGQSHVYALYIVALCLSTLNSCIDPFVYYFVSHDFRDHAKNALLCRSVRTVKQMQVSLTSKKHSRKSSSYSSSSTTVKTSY
Experimental details: IP-One HTRF assay for PAR2 antagonist activity (IP1 production)
Assay type: cell-based
Setup conditions: hPAR2 IPpone IC50 (μM)
Express it in µM; write the number only.

Sample records with IC50:
>  <Compound>
OC(c1ncc[nH]1)c1ccc(F)cc1N1CCCC1 (single isomer, unassigned) [Example 16]

>  <Target under test>
PAR2 (Homo sapiens (Human), UniProt P55085)

>  <Measurement units>
µM

>  <IC50>
0.96

$$$$
>  <Compound>
OC(c1ncc[nH]1)c1ccc(F)cc1-c1cscn1 (centres unmarked)

>  <Target under test>
PAR2 (Homo sapiens (Human), UniProt P55085)

>  <Measurement units>
µM

>  <IC50>
3.6

$$$$
>  <Compound>
OC(c1ncc[nH]1)c1ccc(F)cc1N1CCCC1 (centres unmarked) [Example 14]

>  <Target under test>
PAR2 (Homo sapiens (Human), UniProt P55085)

>  <Measurement units>
µM

>  <IC50>
1.52

$$$$

For the next question, use this compound.
Query block: Consider the compound CCCc1cc(F)ccc1C(O)c1ncc[nH]1 (centres unmarked) and give its recorded IC50.
Result block: 2.93

----------
Target under test: PAR2 (Homo sapiens (Human))
Experimental details: Trypsin activated FLPR Ca2+ mobilization assay for PAR2 antagonist activity
Format: cell-based
Setup conditions: 1321N1 cells stably expressing human PAR2; agonist Trypsin; Vorapaxar present to block PAR1; read-out: hPAR2 FLPR (Trypsin) IC50
Parameter: pIC50. Scope: all listed entries.
As a rule, pIC50 stands for the negative log10 of the concentration, concentration in M.

Sample records with pIC50:
>  <Molecule>
CC1(F)CN(c2cc(F)ccc2C(O)c2ncc[nH]2)C1 (stereo not shown) [Example 24]

>  <Target under test>
PAR2 (Homo sapiens (Human))

>  <pIC50>
4.79

$$$$
>  <Molecule>
CCc1coc2c(F)ccc(C(O)c3ncn[nH]3)c12 (stereo not shown) [Example 63]

>  <Target under test>
PAR2 (Homo sapiens (Human))

>  <pIC50>
4.81

$$$$
>  <Molecule>
OC(c1ncc[nH]1)c1ccc(F)cc1-n1cccn1 (stereo not shown) [Example 23]

>  <Target under test>
PAR2 (Homo sapiens (Human))

>  <pIC50>
4.60

$$$$
>  <Molecule>
CCn1ccc2c(F)ccc(C(O)c3ncc[nH]3)c21 (stereo not shown) [Example 57]

>  <Target under test>
PAR2 (Homo sapiens (Human))

>  <pIC50>
5.04

$$$$
>  <Molecule>
OC(c1ncc[nH]1)c1ccc(F)c2occ(C3CC3)c12 (stereo not shown) [Example 43]

>  <Target under test>
PAR2 (Homo sapiens (Human))

>  <pIC50>
5.34

$$$$
>  <Molecule>
OC(c1ncc[nH]1)c1ccc(F)cc1N1CCC1 (stereo not shown) [Example 20]

>  <Target under test>
PAR2 (Homo sapiens (Human))

>  <pIC50>
4.73

$$$$

Query block: # return pIC50 of C/C=C/c1cc(F)ccc1C(O)c1ncc[nH]1 (stereo not shown) [Example 8] (system: PAR2 (Homo sapiens (Human)))
Result block: 5.29

Query block: # return pIC50 of OC(c1ncc[nH]1)c1ccc(F)cc1N1CC=CC1 (single isomer, unassigned) [Example 18] (system: PAR2 (Homo sapiens (Human)))
Result block: 5.37

Query block: # return pIC50 of CCCc1c(C(O)c2ncc[nH]2)ccc(F)c1F (stereo not shown) [Example 10] (system: PAR2 (Homo sapiens (Human)))
Result block: 5.23

Query block: # return pIC50 of OC(c1ncc[nH]1)c1cccc(Cl)c1-n1cccn1 (stereo not shown) [Example 21] (system: PAR2 (Homo sapiens (Human)))
Result block: 4.39

Query block: # return pIC50 of CC1CN(c2cc(F)ccc2C(O)c2ncc[nH]2)C1 (stereo not shown) [Example 25] (system: PAR2 (Homo sapiens (Human)))
Result block: 4.66

Query block: # return pIC50 of OC(c1ncc[nH]1)c1ccc(F)c(F)c1-n1cccn1 (stereo not shown) [Example 22] (system: PAR2 (Homo sapiens (Human)))
Result block: 4.70
